measurement-target: Retinoic acid receptor RXR-beta (Homo sapiens, UniProt P28702)
Sequence (P28702 whole entry): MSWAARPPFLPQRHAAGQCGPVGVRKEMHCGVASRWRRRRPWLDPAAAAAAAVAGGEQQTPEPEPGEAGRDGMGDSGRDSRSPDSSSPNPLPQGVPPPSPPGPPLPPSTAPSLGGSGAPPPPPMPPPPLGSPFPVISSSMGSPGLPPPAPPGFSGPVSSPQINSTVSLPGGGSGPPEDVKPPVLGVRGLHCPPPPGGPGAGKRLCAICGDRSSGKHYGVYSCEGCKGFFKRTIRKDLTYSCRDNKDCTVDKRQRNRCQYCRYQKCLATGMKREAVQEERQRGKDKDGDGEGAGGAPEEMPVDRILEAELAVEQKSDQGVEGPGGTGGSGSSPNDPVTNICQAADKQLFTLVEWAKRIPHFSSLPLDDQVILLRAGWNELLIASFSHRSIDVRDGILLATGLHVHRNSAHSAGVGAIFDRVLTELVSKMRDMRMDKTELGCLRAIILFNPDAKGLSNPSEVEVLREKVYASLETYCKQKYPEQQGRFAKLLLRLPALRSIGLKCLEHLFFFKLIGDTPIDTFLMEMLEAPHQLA
experimental-protocol: Transcriptional activity was evaluated in CV-1 cells transfected with expression vector for Retinoic acid receptor RXR-beta
Task for the reader: assign each of the following compounds its reported EC50.
Response body: numeric value in nM, unit text excluded.

For record CC1(C)CCC(C)(C)c2cc(/C(=N/O)c3ccc(C(=O)O)cc3)c(Br)cc21 the listed EC50 is 32

For record CCCCO/N=C(\c1ccc(C(=O)O)cc1)c1cc2c(cc1C)C(C)(C)CCC2(C)C the listed EC50 is 157

For record CO/N=C(/c1ccc(C(=O)O)cc1)c1cc2c(cc1C)C(C)(C)CCC2(C)C the listed EC50 is 377

###

measurement-target: UniProt P28702
experimental-protocol: Binding affinity towards recombinantly expressed Retinoic acid receptor RXR-beta in baculoviral system, by using 5 nM [3H]targretin in a competitive binding assay
Task for the reader: assign each of the following compounds its reported pKi.
Scale note: pKi = -log10(concentration in M).

For record Cc1cc2c(cc1/C(=N/O)c1ccc(C(=O)O)cc1)C(C)(C)CCC2(C)C the listed pKi is 8.30

For record Cc1cc2c(cc1/C(=N/OCC#N)c1ccc(C(=O)O)cc1)C(C)(C)CCC2(C)C the listed pKi is 7.85

For record CC1(C)CCC(C)(C)c2cc(/C(=N/O)c3ccc(C(=O)O)cc3)ccc21 the listed pKi is 5.47

###

pKi: −log10 of the molar value.
measurement-name: pKi

# pKi measured on Retinoic acid receptor alpha (Homo sapiens) for item CO/N=C(\c1ccc(C(=O)O)cc1)c1cc2c(cc1C)C(C)(C)CCC2(C)C = < 5.00

###

measurement-target: UniProt P48443
experimental-protocol: Binding affinity towards recombinantly expressed Retinoic acid receptor RXR-gamma in baculoviral system, by using 5 nM [3H]targretin in a competitive binding assay
Task for the reader: assign each of the following molecules its reported Ki.
Response body: numeric value in nM, unit text excluded.

For record CO/N=C(/c1ccc(C(=O)O)cc1)c1cc2c(cc1C)C(C)(C)CCC2(C)C the listed Ki is 238

For record Cc1cc2c(cc1/C(=N/O)c1ccc(C(=O)O)cc1)C(C)(C)CCC2(C)C the listed Ki is 5

For record Cc1cc2c(cc1/C(=N/OCC#N)c1ccc(C(=O)O)cc1)C(C)(C)CCC2(C)C the listed Ki is 14

For record Cc1cc2c(cc1/C(=N/OC(C)(C)C)c1ccc(C(=O)O)cc1)C(C)(C)CCC2(C)C the listed Ki is 445

For record CCO/N=C(/c1ccc(C(=O)O)cc1)c1cc2c(cc1C)C(C)(C)CCC2(C)C the listed Ki is 467

For record CC1(C)CCC(C)(C)c2cc(/C(=N/O)c3ccc(C(=O)O)cc3)ccc21 the listed Ki is 5050

For record CC1(C)CCC(C)(C)c2cc(/C(=N/O)c3ccc(C(=O)O)cc3)c(Br)cc21 the listed Ki is 57

###

measurement-target: Retinoic acid receptor RXR-gamma (Homo sapiens, UniProt P48443)
Sequence (P48443 whole entry): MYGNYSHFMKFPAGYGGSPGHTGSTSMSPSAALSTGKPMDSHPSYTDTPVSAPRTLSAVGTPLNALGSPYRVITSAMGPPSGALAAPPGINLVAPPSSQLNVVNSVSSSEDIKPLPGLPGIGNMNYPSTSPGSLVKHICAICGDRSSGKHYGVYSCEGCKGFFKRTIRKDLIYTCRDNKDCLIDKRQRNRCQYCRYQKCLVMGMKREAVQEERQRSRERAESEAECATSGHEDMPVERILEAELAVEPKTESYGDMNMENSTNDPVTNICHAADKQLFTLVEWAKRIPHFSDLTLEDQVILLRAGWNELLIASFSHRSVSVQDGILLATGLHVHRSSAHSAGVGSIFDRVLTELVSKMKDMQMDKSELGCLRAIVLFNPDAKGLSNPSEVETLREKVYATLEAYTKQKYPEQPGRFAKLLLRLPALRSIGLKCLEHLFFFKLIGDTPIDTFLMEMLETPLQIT
experimental-protocol: Transcriptional activity was evaluated in CV-1 cells transfected with expression vector for Retinoic acid receptor RXR-gamma
Task for the reader: assign each of the following compounds its reported pEC50.
Scale note: pEC50 = -log10(concentration in M).

For record C=CCO/N=C(\c1ccc(C(=O)O)cc1)c1cc2c(cc1C)C(C)(C)CCC2(C)C the listed pEC50 is 8.15

For record CCCO/N=C(\c1ccc(C(=O)O)cc1)c1cc2c(cc1C)C(C)(C)CCC2(C)C the listed pEC50 is 7.55

For record Cc1cc2c(cc1/C(=N/O)c1ccc(C(=O)O)cc1)C(C)(C)CCC2(C)C the listed pEC50 is 8.15

For record CC1(C)CCC(C)(C)c2cc(/C(=N/O)c3ccc(C(=O)O)cc3)c(Br)cc21 the listed pEC50 is 7.59

For record CCCCO/N=C(\c1ccc(C(=O)O)cc1)c1cc2c(cc1C)C(C)(C)CCC2(C)C the listed pEC50 is 7.00
